Assay: Solubility of drug after stirring material providing approx. 20 mg/mL active drug for 24 hours in water (buffer for pure drugs)
Assay type: physicochemical
Conditions: pH 7.72, aqueous buffer
endpoint: solubility at 24 h (mg/mL)
Answers are plain numbers, in mg/mL.

Query: Tell me the measured solubility at 24 h of CC[C@H]1OC(=O)[C@H](C)[C@@H](O[C@H]2C[C@@](C)(OC)[C@@H](O)[C@H](C)O2)[C@H](C)[C@@H](O[C@@H]2O[C@H](C)C[C@H](N(C)C)[C@H]2O)[C@](C)(O)C[C@@H](C)C(=O)[C@H](C)[C@@H](O)[C@]1(C)O [Erythromycin, erythromycin] , please.
Reply: 12.2

###

Test: Solubility of drug after stirring material providing approx. 20 mg/mL active drug for 24 hours in water (buffer for pure drugs)
Type: physicochemical
Settings: pH 8.24, aqueous buffer
endpoint: solubility at 24 h (µg/mL)
Answers are plain numbers, in µg/mL.

Query: Please report the recorded solubility at 24 h for CC[C@H]1OC(=O)[C@H](C)[C@@H](O[C@H]2C[C@@](C)(OC)[C@@H](O)[C@H](C)O2)[C@H](C)[C@@H](O[C@@H]2O[C@H](C)C[C@H](N(C)C)[C@H]2O)[C@](C)(O)C[C@@H](C)C(=O)[C@H](C)[C@@H](O)[C@]1(C)O [Erythromycin, erythromycin] .
Reply: 2120

###

Assay: Bioavailability of 6-O-methylerythromycin in dogs (Example 12)
Assay type: in vivo
Conditions: dog, blood, po, 250 mg 6-O-methylerythromycin, fasted, histamine
endpoint: Tmax (h)
One number for each entry, in h.

Query: Look up Tmax: CC[C@H]1OC(=O)[C@H](C)[C@@H](O[C@H]2C[C@@](C)(OC)[C@@H](O)[C@H](C)O2)[C@H](C)[C@@H](O[C@@H]2O[C@H](C)C[C@H](N(C)C)[C@H]2O)[C@](C)(OC)C[C@@H](C)C(=O)[C@H](C)[C@@H](O)[C@]1(C)O [6-O--Methyl-ery, 6-O-methylerythromycin]
Reply: 1.33

###

Assay: Solubility of drug after stirring material providing approx. 20 mg/mL active drug for 24 hours in water (buffer for pure drugs)
Type: physicochemical
Conditions: pH 7.98, aqueous buffer
endpoint: solubility at 24 h (µg/mL)
Answers are plain numbers, in µg/mL.

Query: Fill in the blank: the reported solubility at 24 h of CC[C@H]1OC(=O)[C@H](C)[C@@H](O[C@H]2C[C@@](C)(OC)[C@@H](O)[C@H](C)O2)[C@H](C)[C@@H](O[C@@H]2O[C@H](C)C[C@H](N(C)C)[C@H]2O)[C@](C)(OC)C[C@@H](C)C(=O)[C@H](C)[C@@H](O)[C@]1(C)O [6-O--Methyl-ery, 6-O-methylerythromycin] is ____.
Reply: 134

###

Assay: Solubility of drug after stirring material providing approx. 20 mg/mL active drug for 24 hours in water (buffer for pure drugs)
Assay type: physicochemical
Settings: pH 6.2, aqueous buffer
endpoint: solubility at 24 h (µg/mL)
One number for each entry, in µg/mL.

Query: Any idea what solubility at 24 h was measured for `CC[C@H]1OC(=O)[C@H](C)[C@@H](O[C@H]2C[C@@](C)(OC)[C@@H](O)[C@H](C)O2)[C@H](C)[C@@H](O[C@@H]2O[C@H](C)C[C@H](N(C)C)[C@H]2O)[C@](C)(OC)C[C@@H](C)C(=O)[C@H](C)[C@@H](O)[C@]1(C)O` ?
Reply: 7000
